Target: Aβ (1-42) peptide (Homo sapiens, UniProt P05067)
Construct: the synthetic Aβ (1-42) peptide was weighed in an Eppendorf tube; purchased Kelowna International Scientific Inc; host or cells: synthetic peptide
Sequence (P05067 672-713): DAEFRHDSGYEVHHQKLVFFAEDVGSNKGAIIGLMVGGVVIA
Assay: Inhibition of Aβ (1-42) aggregation in vitro (ThT fluorescent assay)
Type: biochemical
Conditions: 1:2 ratio of Aβ to compound, 10 μM to 20 μM; 37 °C, 24 h
Returns label 1 if the recorded inhibition of Aβ aggregation is greater than or equal to 90%, and label 0 otherwise.

Could you tell me if the measured inhibition of Aβ aggregation of O=C(OC1O[C@@H]2COC(=O)c3cc(O)c(O)c(O)c3-c3c(cc(O)c(O)c3O)C(=O)O[C@H]2[C@H](OC(=O)c2cc(O)c(O)c(O)c2)[C@H]1OC(=O)c1cc(O)c(O)c(O)c1)c1cc(O)c(O)c(O)c1 (stereo partly drawn) reaches 90% or more?
label 1

I'd appreciate it if you could say whether O=C(OC[C@H]1O[C@@H](OC(=O)c2cc(O)c(O)c(O)c2)[C@H](OC(=O)c2cc(O)c(O)c(O)c2)[C@@H](O)[C@@H]1O)c1cc(O)c(O)c(O)c1 [TT-4, 1,2,6-tri-O-galloyl-β-D-glucopyranoside] has inhibition of Aβ aggregation at least equal to 90%.
label 0

Entry O=C(O[C@H]1[C@@H]2OC(=O)c3cc(O)c(O)c(O)c3-c3c(cc(O)c(O)c3O)C(=O)OC[C@H]2OC(O)[C@@H]1OC(=O)c1cc(O)c(O)c(O)c1)c1cc(O)c(O)c(O)c1 (stereo partly drawn) : is its inhibition of Aβ aggregation no less than 90%?
label 1

Can O=C(O)c1cc(O)c(O)c(O)c1 be said to have inhibition of Aβ aggregation at or above 90%?
label 0

* * *

Target: Aβ (1-42) peptide (Homo sapiens)
Construct: the synthetic Aβ (1-42) peptide was weighed in an Eppendorf tube; purchased Kelowna International Scientific Inc; host or cells: synthetic peptide
Experiment: Inhibition of Aβ (1-42) aggregation in vitro (ThT fluorescent assay)
Format: biochemical
Conditions: 1:1 ratio of Aβ to compound, 10 μM:10 μM; 37 °C, 24 h; read-out: inhibition of Aβ aggregation
measured.metric: inhibition at 10 µM (%)
Write the answer as a number in %, unit excluded.

// O=C(OC[C@H]1O[C@@H](OC(=O)c2cc(O)c(O)c(O)c2)[C@H](OC(=O)c2cc(O)c(O)c(O)c2)[C@@H](O)[C@@H]1O)c1cc(O)c(O)c(O)c1 [TT-4, 1,2,6-tri-O-galloyl-β-D-glucopyranoside] : inhibition at 10 µM value = 54.6

Entry O=C(O)c1cc(O)c(O)c(O)c1 — recorded inhibition at 10 µM = 37.2

The reported inhibition at 10 µM of the compound O=C(OC1O[C@@H]2COC(=O)c3cc(O)c(O)c(O)c3-c3c(cc(O)c(O)c3O)C(=O)O[C@H]2[C@H](OC(=O)c2cc(O)c(O)c(O)c2)[C@H]1OC(=O)c1cc(O)c(O)c(O)c1)c1cc(O)c(O)c(O)c1 (some centres unmarked) was 75.8

# compound O=C(O[C@@H]1O[C@H](CO)[C@@H](O)[C@H](OC(=O)c2cc(O)c(O)c(O)c2)[C@H]1OC(=O)c1cc(O)c(O)c(O)c1)c1cc(O)c(O)c(O)c1 [TT-3, 1,2,3-tri-O-galloyl-β-D-glucopyranoside] ; its inhibition at 10 µM = 42.7

Per the records, this compound ( O=C(OC[C@H]1O[C@@H](OC(=O)c2cc(O)c(O)c(O)c2)[C@H](OC(=O)c2cc(O)c(O)c(O)c2)[C@@H](OC(=O)c2cc(O)c(O)c(O)c2)[C@@H]1O)c1cc(O)c(O)c(O)c1 ) has inhibition at 10 µM equal to 58.5

* * *

Provide the recorded pIC50 for the entries that follow.
Target: recombinant human AChE (Homo sapiens)
Construct: purchased R&D Systems Inc. 7574-CE
Sequence (P22303 32-614): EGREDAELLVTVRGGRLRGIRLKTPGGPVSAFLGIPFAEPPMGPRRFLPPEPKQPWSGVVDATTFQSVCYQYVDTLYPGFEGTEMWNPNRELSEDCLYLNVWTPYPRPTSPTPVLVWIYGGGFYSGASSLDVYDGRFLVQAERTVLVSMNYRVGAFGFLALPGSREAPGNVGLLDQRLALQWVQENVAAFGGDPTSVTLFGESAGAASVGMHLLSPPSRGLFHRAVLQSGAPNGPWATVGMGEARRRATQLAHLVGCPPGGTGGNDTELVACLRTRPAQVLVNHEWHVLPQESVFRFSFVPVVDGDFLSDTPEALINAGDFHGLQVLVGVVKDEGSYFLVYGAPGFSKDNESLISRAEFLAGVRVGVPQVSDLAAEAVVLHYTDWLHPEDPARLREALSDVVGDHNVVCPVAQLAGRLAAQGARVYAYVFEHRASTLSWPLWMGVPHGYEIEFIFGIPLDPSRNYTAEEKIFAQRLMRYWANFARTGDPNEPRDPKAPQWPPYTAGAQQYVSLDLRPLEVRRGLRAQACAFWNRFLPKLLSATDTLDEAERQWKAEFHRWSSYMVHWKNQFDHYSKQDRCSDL
Assay: biochemical
Conditions: isolated compounds from TT-hull-50EE; recombinant human AChE; read-out: IC50 of AChE inhibitory activity
pIC50 here is simply -log10 of the concentration when that concentration is written in mol/L.

Entry O=C(O[C@@H]1O[C@H](CO)[C@@H](O)[C@H](OC(=O)c2cc(O)c(O)c(O)c2)[C@H]1OC(=O)c1cc(O)c(O)c(O)c1)c1cc(O)c(O)c(O)c1 [TT-3, 1,2,3-tri-O-galloyl-β-D-glucopyranoside] , pIC50 reported as 3.43

For record O=C(OC[C@H]1O[C@@H](OC(=O)c2cc(O)c(O)c(O)c2)[C@H](OC(=O)c2cc(O)c(O)c(O)c2)[C@@H](OC(=O)c2cc(O)c(O)c(O)c2)[C@@H]1O)c1cc(O)c(O)c(O)c1 the listed pIC50 is 4.07

Cited source: paper PMC8394356
